All figures here come from patent US20160298117.

Molecular target: beta-conglycinin (heat-denatured, boiled 10 min) (Glycine max, UniProt P0DO16;P11827;P25974 P0DO16:63-605,P11827:63-621,P25974:24-439)
Sequence (P0DO16 63-605, chain 1 of 3): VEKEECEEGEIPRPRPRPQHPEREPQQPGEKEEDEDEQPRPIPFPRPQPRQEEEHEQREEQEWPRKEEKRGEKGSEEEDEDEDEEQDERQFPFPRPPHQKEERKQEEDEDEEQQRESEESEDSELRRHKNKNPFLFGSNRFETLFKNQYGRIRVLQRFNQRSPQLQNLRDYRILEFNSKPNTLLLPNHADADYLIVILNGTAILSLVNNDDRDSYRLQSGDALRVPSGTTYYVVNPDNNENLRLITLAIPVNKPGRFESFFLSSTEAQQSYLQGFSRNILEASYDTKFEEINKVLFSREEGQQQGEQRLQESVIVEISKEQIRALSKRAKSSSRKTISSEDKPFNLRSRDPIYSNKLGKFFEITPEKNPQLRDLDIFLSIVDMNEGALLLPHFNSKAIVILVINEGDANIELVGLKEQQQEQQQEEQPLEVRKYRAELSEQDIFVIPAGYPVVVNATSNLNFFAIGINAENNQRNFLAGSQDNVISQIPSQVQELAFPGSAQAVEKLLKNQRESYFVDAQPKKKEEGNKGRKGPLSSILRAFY
Sequence (P11827 63-621, chain 2 of 3): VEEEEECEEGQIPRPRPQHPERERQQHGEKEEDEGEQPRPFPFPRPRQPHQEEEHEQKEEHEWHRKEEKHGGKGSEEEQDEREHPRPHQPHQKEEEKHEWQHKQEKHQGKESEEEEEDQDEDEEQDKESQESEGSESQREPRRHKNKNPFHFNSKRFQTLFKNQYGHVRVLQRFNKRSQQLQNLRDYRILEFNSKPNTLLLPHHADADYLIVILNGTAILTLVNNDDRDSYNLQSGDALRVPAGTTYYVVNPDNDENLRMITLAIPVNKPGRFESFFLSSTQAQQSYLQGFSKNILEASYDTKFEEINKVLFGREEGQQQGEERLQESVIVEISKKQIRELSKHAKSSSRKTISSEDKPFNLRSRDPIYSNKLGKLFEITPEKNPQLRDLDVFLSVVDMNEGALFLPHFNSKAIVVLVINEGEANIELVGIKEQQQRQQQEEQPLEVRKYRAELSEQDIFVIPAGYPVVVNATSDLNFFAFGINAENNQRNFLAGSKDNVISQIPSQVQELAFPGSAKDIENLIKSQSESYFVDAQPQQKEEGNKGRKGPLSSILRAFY
Sequence (P25974 24-439, chain 3 of 3): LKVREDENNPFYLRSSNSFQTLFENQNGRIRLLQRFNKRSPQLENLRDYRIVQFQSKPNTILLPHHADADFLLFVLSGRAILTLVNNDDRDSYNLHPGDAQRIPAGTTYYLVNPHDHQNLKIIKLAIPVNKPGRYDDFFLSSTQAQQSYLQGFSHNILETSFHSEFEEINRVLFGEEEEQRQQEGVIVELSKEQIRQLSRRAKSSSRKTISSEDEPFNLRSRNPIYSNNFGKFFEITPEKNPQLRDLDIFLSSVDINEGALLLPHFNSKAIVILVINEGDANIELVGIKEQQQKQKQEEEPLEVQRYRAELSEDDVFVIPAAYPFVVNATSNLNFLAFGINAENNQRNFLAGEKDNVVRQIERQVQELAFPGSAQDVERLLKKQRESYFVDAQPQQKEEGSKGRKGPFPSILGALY
Experiment: SPR; little binding, 18.75-300 nM
Details: tags: Sigma C5868-5GM

- BINDER: "P_NES02 (CONA161R8m1s31) (ssDNA) DNA: GAATCCGCGGGGTAGCGGTGGCGAGCGATTCAAAAAAAAAAAAAAAAAAAAAAAA"
  binding result: "no binding"
- BINDER: "GTTTTCTAGGCCAATCTGATCAACAAAAAAAAAAAAAAAAAAAAAAAA (ssDNA) [P_NES04 (CONA171NNHR2R8m2s24)]"
  binding result: "no binding"
- BINDER: "CCCGCCTGTATTCCTGTCCAAAAAAAAAAAAAAAAAAAAAAAA (ssDNA) [P_NES01 (NAH1128R7Am2s19G)]"
  binding result: "no binding"
